tested on: Phakopsora pachyrhizi, PHAKPA; experiment: 3-day curative (3 DC) PHAKPA test on soybean seedlings; type: in vivo; settings: Phakopsora pachyrhizi, alone, rate 0.049 ppm, read-out: % DC obs
I'd be grateful if you could share measured pest or weed control at 0.049 ppm for these entries.
Numbers only; they are read as %.

Known value: Phakopsora pachyrhizi, PHAKPA pest or weed control at 0.049 ppm of the compound FC(F)C(F)(F)OCC(Cn1cncn1)c1ccc(Cl)cc1Cl (stereo not shown) equals 13.7

Known value: Phakopsora pachyrhizi, PHAKPA pest or weed control at 0.049 ppm of the compound CC(O)(Cn1cncn1)c1ccc(Oc2ccc(Cl)cc2)cc1C(F)(F)F (stereo not shown) equals 43.7

Known value: Phakopsora pachyrhizi, PHAKPA pest or weed control at 0.049 ppm of the compound CCCC1COC(Cn2cncn2)(c2ccc(Cl)cc2Cl)O1 (stereo not shown) equals 9.2

Known value: Phakopsora pachyrhizi, PHAKPA pest or weed control at 0.049 ppm of the compound CO/C=C(/C(=O)OC)c1ccccc1COc1cccc(C(F)(F)F)n1 equals 18.5
